Data provenance is patent US9133206B2.

System: SK-N-SH human neuroblastoma cells
Assay: Serum Deprivation/JC-1 Mitochondrial Membrane Potential (MMP) Assay
Format: cell-based
Conditions: Homo sapiens, SK-N-SH, 18 h, serum deprivation ~18 hours, JC-1 ratio normalized to peak value for 10 μM dimebolin, single curve fit to mean data of n=2-3
readout: EC50 (µM)
A number alone suffices; assume µM.

Previously resolved entries follow.
Lab book: EC50 of c1ccc(CN2CCN3c4ccccc4NCCC3C2)cc1 (centres unmarked) noted as 3.47

Lab book: EC50 of O=C(N1CCOCC1)N1Cc2ccccc2N2CCN(Cc3ccccc3)CC2C1 (centres unmarked) noted as 0.754

Lab book: EC50 of O=C(N1CCCCC1)N1Cc2ccccc2N2CCN(Cc3ccccc3)CC2C1 (centres unmarked) noted as 2.45

More entries:
Lab book: EC50 of CC(C)N1CCN(C(=O)N2Cc3ccccc3N3CCN(Cc4ccccc4)CC3C2)CC1 (centres unmarked) noted as 3.18

Lab book: EC50 of N#Cc1cccc(CN2Cc3ccccc3N3CCN(Cc4ccccc4)CC3C2)c1 (centres unmarked) noted as 2.2
